All values here come from ChEMBL document CHEMBL1201862.

Catalogue of GI50 values
system: OVCAR-4; test: NCI tumour cell line growth inhibition, 48 h
Activity calls are given as the source filed them. Cut-off read from the data, not from the text of the source: active = GI50 up to about 1.1 µM and inactive = higher.

Query: Give the reported GI50 for CC(C)(C)[Si](C)(C)OCC1OC(n2cnc3c(N)ncnc32)CC1O (stereo not drawn) (system: OVCAR-4).
Result: 71.4 µM (inactive)

Query: Short answer please: GI50, OVCAR-4, entry NS(=O)(=O)c1nnc(NS(=O)(=O)c2ccc(F)cc2)s1
Result: > 100 µM (inactive)

Query: Give GI50 (OVCAR-4) of the following compound: CC/C=N\N1C(N)=C(C#N)C(C#N)(C#N)C1CC (stereo not drawn)
Result: 91.2 µM (inactive)

Query: Query GI50 on OVCAR-4 for Cc1ccc(Nc2nc(C)c(C(=O)CC(=O)C(=O)Nc3c(C)cccc3C(C)(C)C)s2)cc1
Result: > 100 µM (inactive)

Query: Lab note: need GI50 with OVCAR-4 for entry CC(C)(C)OC(=O)N1CC(COS(C)(=O)=O)c2ccc(O)cc21 (stereo not drawn) , please look it up.
Result: 1.18 µM (inactive)

Query: Can you look up GI50 on OVCAR-4 for COc1ccc(C[C@H]2NC[C@H](O)[C@H]2OC(C)=O)cc1 ?
Result: 0.0194 µM (active)

Query: Give GI50 (OVCAR-4) of the following compound: Cc1nc2ccc(NC(=S)Nc3ccccc3)cc2c(=O)n1-c1ccccc1
Result: > 100 µM (inactive)

Query: For OVCAR-4, provide GI50 of O=C(CCC1C(=O)NC(=S)NC1=O)c1ccc2ccccc2c1 please.
Result: > 100 µM (inactive)

----------
system: SF-268; experiment: NCI tumour cell line growth inhibition, 48 h
Activity calls are given as the source filed them. Rule as the data show it: active = GI50 up to about 1.1 µM and inactive = higher.
Measured GI50 by item

In the examples that follow, each entry is paired with its recorded GI50.
>>> print(df.to_string())
                                   compound  targetundertest             observed
0  C[C@]1(S(=O)(=O)c2ccccc2)C[C@H]2N(Cc3ccccc3)[C@@H]1CCC21OCCO1           SF-268  > 100 µM (inactive)
1            N#CCCN(CCC#N)c1ccc(C(=O)NN)cc1           SF-268  > 100 µM (inactive)

Query: Please report the recorded GI50 for Nc1ccc(S(=O)(=O)NCc2nccs2)cc1 .
Result: 18.6 µM (inactive)

Query: Which GI50 is reported for this compound? Cc1cc(C)nc(NS(=O)(=O)c2ccc(Nc3c4ccccc4nc4ccc(C(=O)Nc5ccc(S(N)(=O)=O)cc5)cc34)cc2)n1
Result: > 100 µM (inactive)

Query: Form field: reported GI50 of CO/C=C(/C(=O)OC)c1ccccc1[C@H]1C[C@@H]1c1ccccc1
Result: 24.4 µM (inactive)

Query: Field request: GI50 | item: COC(=O)C1C2CC3C(OC(=O)C31)C2I (stereo unspecified)
Result: > 100 µM (inactive)

----------
GI50: recorded values
test system: SF-295; experiment: NCI tumour cell line growth inhibition, 48 h
Calls of active or inactive are those of the source. Rule as the data show it: active = GI50 up to about 1.1 µM and inactive = higher.

>>> print(df.to_string())
                                   molecule            observed
0  Cc1cc(N(CCCl)CCCl)ccc1/C=N/NC(=O)Cc1cc(=O)oc2cc(O)ccc12  17.2 µM (inactive)

Query: Data request, read-out GI50, for CCCCCCCCCCCCCCCCCC(=O)Nc1ccn(C2OC(CO)C(O)C2O)c(=O)n1 (stereo not drawn)
Result: > 85.1 µM (inactive)

Query: GET /values?readout=GI50&item= CC1(C)CN=C(Nc2ccc(Cl)cc2)S1
Result: > 100 µM (inactive)

----------
system: OVCAR-4; assay: NCI tumour cell line growth inhibition, 48 h
The source made the active and inactive calls. Rule as the data show it: active = GI50 up to about 1.1 µM and inactive = higher.
parameter: GI50

Would you please look over these solved cases?
In [3]: df
Out[3]:
                                   compound  parameter             observed
0  O=C1NC(=S)NC(=O)C1=Cc1ccc([N+](=O)[O-])o1       GI50   17.3 µM (inactive)
1         O=C(O)c1ccccc1/C=C1\Cc2ccccc2C1=O       GI50  > 100 µM (inactive)

Please find the next compound below.
Query: Name the reported GI50 value associated with the compound CCOC(=O)C(NC(=O)c1cccc(Cl)c1)(N1CCN(c2cc3c(cc2F)c(=O)c(C(=O)O)cn3CC)CC1)C(F)(F)F (stereo not drawn)
Result: 18.6 µM (inactive)

----------
system: HOP-92; experiment: NCI tumour cell line growth inhibition, 48 h
Active and inactive are the calls of the source. Rule as the data show it: active = GI50 up to about 1.1 µM and inactive = higher.
parameter: GI50

In [3]: df
Out[3]:
                             compound  targetundertest           observed
0  COc1ccc([Se]c2ccc(OC)cc2OC)c(OC)c1           HOP-92  2.2 µM (inactive)

Query: Can you share its GI50? I mean this compound: [O-][S+]1CSSC1
Result: 26.1 µM (inactive)

Query: Request the reported GI50 associated with Cc1ccc(/N=N/c2ccc(N)cc2C)c(S(N)(=O)=O)c1
Result: 32.1 µM (inactive)

Query: Requested read-out: GI50. Entry: O=C1C(Cl)=C(Cl)C(Cl)(Cl)C(Cl)C1(Cl)Cl (stereo not drawn)
Result: 16.9 µM (inactive)

Query: Which GI50 is reported for this compound? NC(Cc1ccc(OCc2ccccc2)cc1)C(=O)NC(Cc1ccccc1)C(=O)Oc1c(Cl)c(Cl)c(Cl)c(Cl)c1Cl (stereo not drawn)
Result: 11.9 µM (inactive)

Query: Consider the compound COC(=O)C(C(=O)C(=O)Nc1c(C)cccc1C)c1cnc2ccccc2n1 (stereo not drawn) and give its measured GI50.
Result: > 100 µM (inactive)

Query: Can you look up the measured GI50 of CC1=C(C)SC(=C2Sc3c(n(C)c(=O)[nH]c3=O)S2)S1 for me?
Result: > 100 µM (inactive)

Query: Looking for the measured GI50 of CCCCNC(=S)N/C=C1\C(=O)Nc2ccccc2C1=O , can you help?
Result: > 10 µM (inactive)

Query: Could you share which GI50 value was measured for CCCCn1/c(=N/C(=S)N(C)C)ss/c1=N\C(=S)N(C)C ?
Result: > 100 µM (inactive)

Query: Recorded GI50 for S=C1N=C(Cl)/C(=C\c2ccccc2)N1 , please?
Result: > 100 µM (inactive)

Query: Quick one: GI50 of CCCCCCCCC/C=C1/CC(CO)(COC(=O)C2CCCCC2)OC1=O (stereo not drawn) ?
Result: > 100 µM (inactive)

----------
tested on: HOP-62; assay: NCI tumour cell line growth inhibition, 48 h
Activity calls are given as the source filed them. No stated cut-off is given here; in the data, active = GI50 up to about 1.1 µM and inactive = higher.
Catalogue of GI50 readings, one per entry.

Study these solved cases before continuing.
In [3]: df
Out[3]:
                                   molecule  parameter             observed
0         Nc1ccc2c(c1)CN1C(=O)c3ccccc3C1=N2       GI50   9.71 µM (inactive)
1  COC1C(N(C)C)=C(c2ccccc2)C(=O)N2CCc3ccccc3C12 (configuration not stated)       GI50  > 100 µM (inactive)
2  CC(C)CCNC(=O)c1ccc(CNC(=O)/C=C/c2cccc(Oc3ccccc3)c2)cc1       GI50   18.7 µM (inactive)

Query: # returns recorded GI50 (system: HOP-62) for NC(=O)c1nnc2c(F)cccc2c1N
Result: > 100 µM (inactive)

Query: For the record CC1(C)C=N[N+]2(C)C3C=CC(CC3)C12 (configuration not stated) , what value of GI50 is listed for HOP-62?
Result: > 100 µM (inactive)

Query: Value wanted: GI50 (HOP-62) of entry O=c1c2cccnc2ncn1CCCN1CCCC1
Result: > 100 µM (inactive)

Query: Checklist item: GI50 tested on HOP-62, entry C[n+]1c(-c2ccc(/C=N\NC(=O)c3ccc(C(=O)N/N=C/c4ccc(-c5cn6ccsc6[n+]5C)cc4)cc3)cc2)cn2ccsc21 , value?
Result: 17.9 µM (inactive)

Query: API: value(readout=GI50, system=HOP-62) for record Cc1nc([N+](=O)[O-])cn1-c1nc2ccccn2c1[N+](=O)[O-]
Result: 55.1 µM (inactive)

Query: Lab note: need GI50 for CCN(CC)CCSc1c2ccccc2nc2cc(NCC(=O)Nc3ccccc3-c3ccccc3NC(=O)CNc3ccc4c(SCCN(CC)CC)c5ccccc5nc4c3)ccc12 on HOP-62, anyone have it?
Result: > 100 µM (inactive)

Query: GET /values?readout=GI50&system=HOP-62&item= CN1C(=O)C(CC(=O)O)NC1=S (configuration not stated)
Result: > 100 µM (inactive)

Query: Notebook: pull reported GI50 for HOP-62, entry Cn1ccnc1CCc1ccc(Cl)c(Cl)c1
Result: > 100 µM (inactive)

Query: Any idea what GI50 came out for O=C(O)CC(NC(=O)/C(=C/c1ccccc1)NC(=O)c1ccccc1)C(=O)O (configuration not stated) on HOP-62?
Result: > 100 µM (inactive)
